- method-notes: Cytotoxicity against human L02 cells assessed as inhibition of cell proliferation at 12.5 uM after 48 hrs by MTT based ELISA
measure: inhibition at 48 h, 12.5 µM (%)
Number only, in %; omit the unit.

Q: I'd like to know its inhibition at 48 h, 12.5 µM. The compound in question is "CC(C)=CCC/C(C)=C/CC/C(C)=C/CSc1ccccc1C(=O)N1CCN(CCOc2no[n+]([O-])c2S(=O)(=O)c2ccccc2)CC1"
Ans: 10

----------
- method-notes: Acute toxicity in KM mouse assessed as mortality
- Assay type: organism-based
- cond: in vivo
measure: LD50 (mg/kg)
Note: unit mg/kg is implicit; provide only the numeric part.

Q: Can you look up the measured LD50 of "CC(C)=CCC/C(C)=C/CC/C(C)=C/CSc1ccccc1C(=O)N1CCN(CCOc2no[n+]([O-])c2S(=O)(=O)c2ccccc2)CC1" for me?
Ans: 467

// provenance: ChEMBL document CHEMBL1782012
